In this section, each of the binders is paired with its reported EC50 of hC3 cleavage.
target: plasma purified human complement protein C3 (human) (UniProt P01024); assay: cell-based or functional assay
Sequence (P01024 23-667, chain 1 of 2): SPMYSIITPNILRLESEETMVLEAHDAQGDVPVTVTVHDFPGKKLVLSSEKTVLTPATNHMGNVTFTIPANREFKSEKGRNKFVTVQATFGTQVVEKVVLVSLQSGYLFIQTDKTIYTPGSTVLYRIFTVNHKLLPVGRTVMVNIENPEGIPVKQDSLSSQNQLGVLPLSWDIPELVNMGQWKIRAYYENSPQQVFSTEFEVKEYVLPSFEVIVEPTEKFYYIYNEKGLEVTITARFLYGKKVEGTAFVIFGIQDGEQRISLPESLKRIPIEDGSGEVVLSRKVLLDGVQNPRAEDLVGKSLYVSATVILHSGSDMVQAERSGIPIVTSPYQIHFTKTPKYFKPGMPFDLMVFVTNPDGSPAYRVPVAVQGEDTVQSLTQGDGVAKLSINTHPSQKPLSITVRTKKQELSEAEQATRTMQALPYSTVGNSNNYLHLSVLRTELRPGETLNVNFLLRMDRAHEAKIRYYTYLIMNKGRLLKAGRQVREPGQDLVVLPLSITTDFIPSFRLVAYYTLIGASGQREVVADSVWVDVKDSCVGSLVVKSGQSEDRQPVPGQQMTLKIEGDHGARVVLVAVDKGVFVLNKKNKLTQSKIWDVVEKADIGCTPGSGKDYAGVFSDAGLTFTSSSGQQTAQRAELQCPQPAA
Sequence (P01024 672-1663, chain 2 of 2): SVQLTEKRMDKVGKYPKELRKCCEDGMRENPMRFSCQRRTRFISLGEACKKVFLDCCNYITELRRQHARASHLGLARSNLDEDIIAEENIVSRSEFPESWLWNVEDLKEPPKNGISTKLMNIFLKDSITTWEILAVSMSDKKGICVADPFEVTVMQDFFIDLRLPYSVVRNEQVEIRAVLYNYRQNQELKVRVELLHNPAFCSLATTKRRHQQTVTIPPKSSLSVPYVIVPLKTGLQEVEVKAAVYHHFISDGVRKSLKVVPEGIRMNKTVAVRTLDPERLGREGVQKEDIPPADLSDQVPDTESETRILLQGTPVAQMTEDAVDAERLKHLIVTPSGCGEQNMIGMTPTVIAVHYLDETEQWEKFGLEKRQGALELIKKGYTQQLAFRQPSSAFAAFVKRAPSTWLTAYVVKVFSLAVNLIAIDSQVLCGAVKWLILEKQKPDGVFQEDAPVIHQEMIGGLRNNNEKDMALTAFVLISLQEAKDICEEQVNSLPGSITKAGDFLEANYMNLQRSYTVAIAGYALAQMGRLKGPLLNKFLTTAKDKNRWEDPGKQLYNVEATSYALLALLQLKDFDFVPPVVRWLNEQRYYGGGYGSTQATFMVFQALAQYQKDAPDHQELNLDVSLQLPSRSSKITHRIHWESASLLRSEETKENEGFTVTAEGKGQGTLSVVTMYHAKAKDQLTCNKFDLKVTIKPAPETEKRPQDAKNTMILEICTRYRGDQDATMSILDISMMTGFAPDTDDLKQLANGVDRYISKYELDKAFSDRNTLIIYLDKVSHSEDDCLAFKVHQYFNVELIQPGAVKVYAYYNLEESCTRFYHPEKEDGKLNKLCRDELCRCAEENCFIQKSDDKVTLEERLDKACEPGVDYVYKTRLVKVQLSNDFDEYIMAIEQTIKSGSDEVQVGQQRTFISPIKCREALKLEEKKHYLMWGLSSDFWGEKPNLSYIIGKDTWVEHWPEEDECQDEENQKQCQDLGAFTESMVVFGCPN
Only the number, expressed in nM, is required.

| binder | EC50 of hC3 cleavage (nM) |
| --- | --- |
| MTSP-1 H40K/I41M/F99L/C122S/T150A/G151R/Q192G (enzyme) VVGGTDADEGEWPWQVSLHALGQGKMCGASLISPNWLVSAAHCYIDDRGFRYSDPTQWTAFLGLHDQSQRSAPGVQERRLKRIISHPFFNDFTLDYDIALLELEKPAEYSSMVRPISLPDASHVFPAGKAIWVTGWGHTQYGGARALILQKGEIRVINQTTCENLLPQQITPRMMCVGFLSGGVDSCGGDSGGPLSSVEADGRIFQAGVVSWGDGCAQRNKPGVYTRLPLFRDWIKENTGV | 110 |

# evaluate next
stdin: Fill blank: measured EC50 of hC3 cleavage of the binder MTSP-1 D96V/ins97aE/F97T/T98G/F99L/C122S/Q175L/Q192D (enzyme) VVGGTDADEGEWPWQVSLHALGQGHICGASLISPNWLVSAAHCYIDDRGFRYSDPTQWTAFLGLHDQSQRSAPGVQERRLKRIISHPFFNVTEGLDYDIALLELEKPAEYSSMVRPISLPDASHVFPAGKAIWVTGWGHTQYGGTGALILQKGEIRVINQTTCENLLPQLITPRMMCVGFLSGGVDSCDGDSGGPLSSVEADGRIFQAGVVSWGDGCAQRNKPGVYTRLPLFRDWIKENTGV is ____.
stdout: 258
